- tested_target: Fuc(a1-2)Gal(b1-3)[Fuc(a1-4)]GlcNAc
- experiment_summary: glycan array binding signal (z-score within array); higher = stronger binding
- reported_conditions: glycan notation: IUPAC condensed, linker removed
This excerpt belongs to a sample that is enriched for the strongest signals.
Hi there, I'd appreciate the recorded glycan array binding signal (z-score) for every entry that follows.
A bare number is all that is needed in reply.

The binder SJCP1084 (Schistosoma japonicum) (protein) MRIINLVIISTALLLINLLQTKSQANGEDTKNGTPDDPGLTKSTELKVEVQALLKDKKTNMRVKWNENLLDNTKPEYHNLRDEACELLLQIVRSVVPLSQDDGECKDVTFTKYVVGTKDGAVNVKLTITFKDSVAINQKPMDLKLKLENDFKNLQSESTLKATKPTFTVKVEKRLIPISKPQTTPPTTAKNDASKENVGDIGGEDSTVPTAAPATAASANEEKDEGDKDNKDSQHPNVLTSNVNDRNLIIALVALMILAIGVALTAAVKQR showed glycan array binding signal (z-score) equal to 0.425

Note to self: glycan array binding signal (z-score) recorded for BSR4 (Toxoplasma gondii), Q95NL6 (protein) MVMMGSMQQRRGGLRSNARQLLAVCMSGVVFFSSGQAVADNLLEGLLHRTLQQQVEVTSRLTVAGSDAKCDFFTPATQDSPPVSGSLTLSKGRMTATFECSATQALSISTIPTNIEQNVCDPKKTTNGTVCQFGANGSAGTEVTLKDLLETDRIVNWKVNEQREESNKSQKWSLELHNEDLPLTDKAFVVGCQATSAARGTESGKTAACKLTVNVEARASSLAENNVVTCAYGKGSNPNPVEVEMSTEKNTLTINCGSDGSLQPTTYAEEYCVADSKDVNRCSTTRFVEIFPKFLKSWWVTETQKRTSATLTIPQTDLPEADQQFLVGCVPKKTAPEDPKKDKESGTETGAPTSCTVLVTVKAASSASHASPTVQILAAASSAAA was 0.187

Per the record, cupB6 (Pseudomonas aeruginosa), Q02SP7 (protein) MSMRLFPGRVSLRRRPGAQARQALVLGLCCLTGGQAWALNEVALNCSFGNGKGLPWRVVNELTSGTAKGTVLFARPVSLFLSYKPQASQEAHELVLGGNWSGVGYPGPYGTVASDVKGIGYRISVDAQDGVKRVIPVDNQPHALDKRVTSFSGSTTSDYLQELVLTVDPGELPAGDLKVTSVSGSATLNLWAVDRLKGEASIGSVLAVPADNYPTGVCRKPYSLIGPASIAIGGGPPPPPIPKKCKVEVGREINVKLGSVALKNFPRVNDTSTERSFDISLSECAALAKPEIAFRDKYVSAQQADPTILSLKSGGAAGFGIVVKNGLDQQRIRFDGTPYPMRRVGDSADLPLSAAYIRIGAEGELKAGVADGAAEFTFTFP has glycan array binding signal (z-score) of 19.6

Given item PEB3 (Campylobacter jejuni), Q0PBL7 (protein) MKKIITLFGACALAFSMANADVNLYGPGGPHTALKDIANKYSEKTGVKVNVNFGPQATWFEKAKKDADILFGASDQSALAIASDFGKDFNVSKIKPLYFREAIILTQKGNPLKIKGLKDLANKKVRIVVPEGAGKSNTSGTGVWEDMIGRTQDIKTIQNFRNNIVAFVPNSGSARKLFAQDQADAWITWIDWSKSNPDIGTAVAIEKDLVVYRTFNVIAKEGASKETQDFIAYLSSKEAKEIFKKYGWRE , the value recorded as its glycan array binding signal (z-score) is 7.5
